Assay: AUC in Sprague-Dawley rat at 5 mg/kg, iv measured upto 25 hrs by LCMS analysis
Format: ADME, organism-based
Design: route intravenous, dose 5 mg/kg, time <=25
Details: in vivo
Can you tell me AUC for the items I'm about to list?
Numbers only, in ng·h/mL.

Here's what some known entries look like.
- compound: "Cl.N[C@@H](COc1ccccc1C(F)(F)F)c1ccccc1"
  AUC (ng·h/mL): 280
- compound: "Cl.NC(COc1ccccc1C(F)(F)F)c1ccccc1 (racemic)"
  AUC (ng·h/mL): 544
- compound: "Cl.N[C@H](COc1ccccc1C(F)(F)F)c1ccccc1"
  AUC (ng·h/mL): 407

Here is another compound to look at.
Prompt line: I'd like to know its AUC. The compound in question is Cc1cccc(C)c1OCC(C)N (centres undefined)
Response line: 447
